# procedure_text: Dark toxicity in human HepG2 cells incubated for 3 hrs by CCK-8 assay
# Format: cell-based
property_name: IC50 at 3 h (µM)
Write the answer as a number in µM, unit excluded.

CCN(CC)Cc1ccc(C2=C(I)C(c3ccc(OC)cc3)=[N+]3C2=Nc2c(-c4ccc(CN(CC)CC)cc4)c(I)c(-c4ccc(OC)cc4)n2[B-]3(F)F)cc1    28.9
CCN(CC)Cc1ccc(C2=C(Br)C(c3ccc(OC)cc3)=[N+]3C2=Nc2c(-c4ccc(CN(CC)CC)cc4)c(Br)c(-c4ccc(OC)cc4)n2[B-]3(F)F)cc1    23.5

Lookup result for CCN(CC)Cc1ccc(C2=C(I)C(c3ccc(OC)cc3)=[N+]3C2=Nc2c(-c4ccccc4)c(I)c(-c4ccc(OC)cc4)n2[B-]3(F)F)cc1 ; measured IC50 at 3 h: 49.4

Data provenance: ChEMBL document CHEMBL5523681
